Tested on: U2OS
Assay Text: cell viability relative to DMSO; higher = less toxic
Assay Setup: 72 h; 10 nM
So I've got a bunch of compounds here, and I need their cell viability values.
Write down the numeric answer in % and omit the unit.

Item: O=C1c2c(O)cccc2C([C@@H]2O[C@H](CO)[C@@H](O)[C@H](O)[C@H]2O)c2cc(CO)cc(O)c21 (some centres undefined) | cell viability: 100

Item: OC[C@H]1O[C@@H](Oc2cc(O)cc(/C=C/c3ccc(O)cc3)c2)[C@H](O)[C@@H](O)[C@@H]1O | cell viability: 103

Item: CC1=NN(c2ccc(C)c(C)c2)C(=O)/C1=N\Nc1cccc(-c2cccc(C(=O)O)c2)c1O | cell viability: 102

Item: CO[C@H]1/C=C/O[C@@]2(C)Oc3c(C)c(O)c4c(O)c(cc(O)c4c3C2=O)NC(=O)/C(C)=C\C=C\[C@H](C)[C@H](O)[C@@H](C)[C@@H](O)[C@@H](C)[C@H](OC(C)=O)[C@@H]1C | cell viability: 102

Item: COC(=O)/C=C/C(=O)OCCN1C(=O)CCC1=O [diroximel-fumarate] | cell viability: 101

Item: CCc1cccc(CC)c1NC(=O)c1nn(C)c2c1CCc1cnc(Nc3ccc(C(=O)NC4CCN(C)CC4)cc3OC(F)(F)F)nc1-2 | cell viability: 99.7

Item: O=C(NC1CCN(CCCCC2(C(=O)NCC(F)(F)F)c3ccccc3-c3ccccc32)CC1)c1ccccc1-c1ccc(C(F)(F)F)cc1 [lomitapide] | cell viability: 110

Item: COc1ccccc1OCC(O)CO (centres undefined) | cell viability: 98.8

Item: CCCCCCCCCCC(O)C1C=CC2C(=O)N(c3ccccc3)C(=O)C2N1Nc1ccc([N+](=O)[O-])cc1 (centres undefined) | cell viability: 104

Item: COc1cc2c(cc1OC)C(c1ccc(N)cc1)=NNC(=O)C2 | cell viability: 98.2

Item: CC(C)(C)[C@H]1CC[C@H](CC2=C(O)C(=O)c3ccccc3C2=O)CC1 | cell viability: 100

Item: CNC[C@H](O)[C@@H](O)[C@H](O)[C@H](O)CO | cell viability: 92.8

Item: CN1CCC(Nc2ncc3ncnc(Nc4ccc(F)c(Cl)c4)c3n2)CC1 | cell viability: 104

Item: CC(C)NC(=O)COc1cccc(-c2nc(Nc3ccc4[nH]ncc4c3)c3ccccc3n2)c1 | cell viability: 103

Item: CCCOc1ccc(Br)cc1-c1cc(-c2ccc(Cl)cc2)[nH]c1-c1ccncc1 | cell viability: 106

Item: CN1CCC(=C2c3ccccc3CCn3c(C=O)cnc32)CC1 | cell viability: 101

Item: CCCOc1ccc2[nH]c(NC(=O)OC)nc2c1 | cell viability: 95.2

Item: COc1cc2ncn(-c3cc(OCc4ccccc4C(F)(F)F)c(C(N)=O)s3)c2cc1OC | cell viability: 97.8

Item: O=[N+]([O-])c1cc(Cl)ccc1S(=O)(=O)N1CCN(Cc2ccccc2)CC1 | cell viability: 100

Item: Nc1nccc2c1ncn2C1C=C(CO)C(O)C1O (centres undefined) | cell viability: 97.4

Item: CN1C(=O)/C(=C2/C(=O)Nc3ccccc32)c2ccccc21 | cell viability: 102

Item: CC(C)C[C@@H](NC(=O)[C@H](Cc1ccccc1)NC(=O)CNC(=O)[C@@H](C)NC(=O)[C@@H](N)Cc1ccc(O)cc1)C(=O)O [BW-180C] | cell viability: 97.8

Item: Cc1ccc(CC2(O)CCN(CCOc3ccc(O)cc3)CC2)cc1 | cell viability: 96.8

Item: CCCN1C[C@H](CSC)C[C@@H]2c3cccc4[nH]cc(c34)C[C@H]21 [pergolide] | cell viability: 102

Item: CN(C)C/C=C(/c1ccc(Br)cc1)c1cccnc1 | cell viability: 97.5

Item: CN1CCN(c2nc(C3=C(c4c[nH]c5ccccc45)C(=O)NC3=O)c3ccccc3n2)CC1 | cell viability: 94

Item: CCn1c(O)nnc1-c1ccc(Cl)cc1 [5-(4chlorophenyl)-4-ethyl-2,4-dihydro-3H-1,2,4-triazol-3-one] | cell viability: 103

Item: CC(=O)O[C@]1(C(C)=O)CC[C@H]2[C@@H]3C=CC4=CC(=O)CC[C@]4(C)[C@H]3CC[C@@]21C [6,7-dehydro-17-acetoxy-progesterone] | cell viability: 99.6

Item: CCN(CC)CCOC(=O)C1(c2ccc([N+](=O)[O-])cc2)CCCC1 | cell viability: 102

Item: Cc1ccnc2c1CCCC2C(N)=S (centres undefined) [isotiquimide] | cell viability: 97.4

Item: N=C(N)Nc1ccc2[nH]c3c(c2c1)C[C@@]1(O)[C@H]2Cc4ccc(O)c5c4[C@@]1(CCN2CC1CC1)[C@H]3O5 | cell viability: 93.5

Item: Cc1ccc(-c2cn3c4c(sc3n2)CCCC4)cc1 | cell viability: 101

Item: CN1CCCN=C1COC(=O)C(O)(c1ccccc1)C1CCCCC1 (centres undefined) | cell viability: 101

Item: CCCCCCCCCCCCCCCC[n+]1ccn(Cc2ccccc2)c1C | cell viability: 93.7

The origin of these recorded values is the supplement of paper PMC13380429.
